The reported numbers originate from paper PMC10363979.

# method: Inhibition of macitentan metabolism (ACT-132577 formation) by bergapten and Michaelis-Menten kinetics in rat liver microsomes
# Assay type: in vitro ADME
# condition_context: rat, rat liver microsomes, pH 7.4; RLMs

{"smiles_str": "CCCNS(=O)(=O)Nc1ncnc(OCCOc2ncc(Br)cn2)c1-c1ccc(Br)cc1", "unit_text": "µM", "Km at 30 min": 4.82}

====

# method: Pharmacokinetic interaction between BP and macitentan in rats (plasma macitentan and ACT-132577)
# Format: in vivo, Sprague-Dawley rats
# condition_context: Sprague-Dawley, rat, plasma, po, 20 mg/kg, macitentan in plasma, macitentan 20 mg/kg oral, control group, read-out: t1/2z (converted)

{"smiles_str": "CCCNS(=O)(=O)Nc1ncnc(OCCOc2ncc(Br)cn2)c1-c1ccc(Br)cc1", "half-life / h": 4.53}

====

# method: Pharmacokinetic interaction between BP and macitentan in rats (plasma macitentan and ACT-132577)
# Format: in vivo, Sprague-Dawley rats
# condition_context: Sprague-Dawley, rat, plasma, po, 20 mg/kg, macitentan in plasma, macitentan 20 mg/kg oral, control group

{"smiles_str": "CCCNS(=O)(=O)Nc1ncnc(OCCOc2ncc(Br)cn2)c1-c1ccc(Br)cc1", "Cmax (ng/mL)": 1340}

====

# method: Pharmacokinetic interaction between BP and macitentan in rats (plasma macitentan and ACT-132577)
# Type: in vivo, Sprague-Dawley rats
# condition_context: Sprague-Dawley, rat, plasma, po, 20 mg/kg, macitentan in plasma, macitentan 20 mg/kg oral, experimental group (BP 10 mg/kg daily 7 days), read-out: CLz/F (converted)
# Method: The concentrations of macitentan and ACT-132577 were determined by UPLC-MS/MS, which consisted of an Acquity I-class UPLC system (Waters Corp., Milford, MA, United States) and a Xevo TQD triple quadrupole mass spectrometer (Waters Corporation, Milford, MA, United States) equipped with an electrospray ionization source. […] All assays were performed in triplicate, and the results are expressed as mean ± standard deviation. […]

{"smiles_str": "CCCNS(=O)(=O)Nc1ncnc(OCCOc2ncc(Br)cn2)c1-c1ccc(Br)cc1", "CL/F, mL/min/kg": 17.8}

====

# method: Pharmacokinetic interaction between BP and macitentan in rats (plasma macitentan and ACT-132577)
# Type: in vivo, Sprague-Dawley rats
# condition_context: Sprague-Dawley, rat, plasma, po, 20 mg/kg, macitentan in plasma, macitentan 20 mg/kg oral, experimental group (BP 10 mg/kg daily 7 days)
readout_kind: AUC(0-inf)

{"compound": "CCCNS(=O)(=O)Nc1ncnc(OCCOc2ncc(Br)cn2)c1-c1ccc(Br)cc1 [macitentan]", "readout_kind": "AUC(0-inf)", "reported": "20400 ng·h/mL"}

====

# assay_system: recombinant human CYP3A4 (rCYP3A4) (Homo sapiens, UniProt P08684)
# Construct: made in house
# Sequence (P08684 whole entry): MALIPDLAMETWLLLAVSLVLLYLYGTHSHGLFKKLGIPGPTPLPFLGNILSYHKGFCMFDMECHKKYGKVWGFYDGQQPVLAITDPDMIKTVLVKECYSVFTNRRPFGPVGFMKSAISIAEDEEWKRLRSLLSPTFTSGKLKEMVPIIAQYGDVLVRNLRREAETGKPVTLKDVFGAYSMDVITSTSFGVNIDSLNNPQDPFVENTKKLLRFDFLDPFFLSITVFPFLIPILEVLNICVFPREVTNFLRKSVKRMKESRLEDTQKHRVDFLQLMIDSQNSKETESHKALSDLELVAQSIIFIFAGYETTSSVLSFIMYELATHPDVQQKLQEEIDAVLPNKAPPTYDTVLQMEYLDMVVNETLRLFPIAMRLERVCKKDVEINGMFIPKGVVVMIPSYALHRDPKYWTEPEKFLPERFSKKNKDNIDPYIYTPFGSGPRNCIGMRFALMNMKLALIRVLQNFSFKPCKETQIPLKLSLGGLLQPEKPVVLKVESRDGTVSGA
# method: Inhibition of macitentan metabolism (ACT-132577 formation) by bergapten and Michaelis-Menten kinetics in recombinant human CYP3A4
# Assay type: in vitro ADME
# condition_context: read-out: Ki of BP on macitentan metabolism

{"smiles_str": "COc1c2ccoc2cc2oc(=O)ccc12", "assay_system": "recombinant human CYP3A4 (rCYP3A4) (Homo sapiens, UniProt P08684)", "Ki / µM": 5.06}

====

# method: Pharmacokinetic interaction between BP and macitentan in rats (plasma macitentan and ACT-132577)
# Format: in vivo, Sprague-Dawley rats
# condition_context: Sprague-Dawley, rat, plasma, po, 20 mg/kg, macitentan in plasma, macitentan 20 mg/kg oral, experimental group (BP 10 mg/kg daily 7 days)

{"smiles_str": "CCCNS(=O)(=O)Nc1ncnc(OCCOc2ncc(Br)cn2)c1-c1ccc(Br)cc1", "Cmax / ng/mL": 3000}
